Reference source for all entries: patent US10233188B2

# TESTED SYSTEM: CDK2/Cyclin E1 (Homo sapiens (Human), UniProt P24941)
# PROCEDURE SUMMARY: biochemical
# CONDITION INFO: CDK2_Ki (nM), phosphorylated CDK2/Cyclin E1, 150 μM ATP, Morrison tight-binding fit
ASSAY ENDPOINT: Ki (nM)

Examples from the recorded data:
C[C@@H]1[C@H](O)CC[C@H]1n1c(=O)ccc2cnc(NC3CCN(S(C)(=O)=O)CC3)nc21 (single isomer, unassigned) : 0.12
COCc1cc2cnc(NC3CCN(S(C)(=O)=O)CC3)nc2n(C2CCCC2)c1=O : 1.88
C[C@]1(O)CCC[C@@H]1n1c(=O)ccc2cnc(NC3CCN(S(=O)(=O)C4CC4)CC3)nc21 (single isomer, unassigned) : 3.85
C[C@@]1(O)CCC[C@H]1n1c(=O)c(CO)cc2cnc(NC3CCN(S(C)(=O)=O)CC3)nc21 (single isomer, unassigned) : 0.43
Cc1cc2cnc(NC3CCN(S(=O)(=O)N(C)C)CC3)nc2n(C2CCCC2)c1=O : 1.59
Cc1cc2cnc(NC3CCN(S(=O)(=O)C4CCS(=O)(=O)C4)CC3)nc2n([C@@H]2CCC[C@@]2(C)O)c1=O (single isomer, unassigned; isomer a) [Example 106] : 0.16
C[C@@]1(O)CCC[C@H]1n1c(=O)c(Cl)cc2cnc(NC3CCN(S(N)(=O)=O)CC3)nc21 (single isomer, unassigned) : 0.12
C[C@@H]1CCC[C@@H]1n1c(=O)c(Cl)cc2cnc(NC3CCN(S(C)(=O)=O)CC3)nc21 : 1.28

a. CN(C)S(=O)(=O)N1CCC(Nc2ncc3ccc(=O)n(C4CCCC4)c3n2)CC1
b. COCCS(=O)(=O)N1CCC(Nc2ncc3cc(C)c(=O)n([C@H]4CCC[C@]4(C)O)c3n2)CC1 (single isomer, unassigned)
// max by Ki over [ a , b ] Give the label of your selection.
b

###

# TESTED SYSTEM: CDK6/Cyclin D1 (Homo sapiens (Human))
# PROCEDURE SUMMARY: biochemical
# CONDITION INFO: CDK6_Ki (nM), non-phosphorylated CDK6/Cyclin D1, 2 mM ATP, Morrison fit
ASSAY ENDPOINT: Ki (nM)

C[C@@]1(O)CCC[C@H]1n1c(=O)c(CC(N)=O)cc2cnc(NC3CCN(S(C)(=O)=O)CC3)nc21 (single isomer, unassigned) [Example 179] : 2.18

P. C[C@]1(O)CCC[C@@H]1n1c(=O)ccc2cnc(NC3CCN(S(N)(=O)=O)CC3)nc21 (single isomer, unassigned) [Example 184]
Q. C[C@@]1(O)CCC[C@H]1n1c(=O)ccc2cnc(NC3CCN(S(N)(=O)=O)CC3)nc21 (single isomer, unassigned) [Example 183]
Lower value of Ki belongs to which: P or Q ? In your reply, give the label of the chosen option.
Q
(Q: 1.99 nM, P: 11.8 nM)

###

# TESTED SYSTEM: CDK6/Cyclin D1 (Homo sapiens (Human), UniProt Q00534)
# Sequence (Q00534 whole entry): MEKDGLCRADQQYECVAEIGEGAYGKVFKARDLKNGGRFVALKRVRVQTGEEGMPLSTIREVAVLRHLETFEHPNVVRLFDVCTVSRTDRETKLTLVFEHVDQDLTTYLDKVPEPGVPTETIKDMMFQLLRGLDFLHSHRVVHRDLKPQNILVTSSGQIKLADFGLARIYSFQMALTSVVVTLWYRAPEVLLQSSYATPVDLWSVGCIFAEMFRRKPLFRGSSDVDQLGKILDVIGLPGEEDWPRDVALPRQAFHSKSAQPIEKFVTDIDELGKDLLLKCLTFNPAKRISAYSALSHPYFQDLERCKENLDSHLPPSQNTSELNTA
# Sequence (P24385 whole entry partner): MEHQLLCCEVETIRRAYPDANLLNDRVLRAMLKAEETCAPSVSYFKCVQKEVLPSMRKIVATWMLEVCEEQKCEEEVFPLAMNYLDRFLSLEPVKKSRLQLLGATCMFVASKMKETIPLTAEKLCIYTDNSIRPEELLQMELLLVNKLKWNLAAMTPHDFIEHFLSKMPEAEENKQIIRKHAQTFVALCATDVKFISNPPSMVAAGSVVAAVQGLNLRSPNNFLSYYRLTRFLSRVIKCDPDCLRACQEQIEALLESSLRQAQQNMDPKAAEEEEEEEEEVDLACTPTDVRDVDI
# PROCEDURE SUMMARY: biochemical
# CONDITION INFO: CDK6_Ki (nM), non-phosphorylated CDK6/Cyclin D1, 2 mM ATP, Morrison fit
ASSAY ENDPOINT: Ki (nM)

Cc1cc2cnc(NC3CCN(S(=O)(=O)CC(F)(F)F)CC3)nc2n([C@H]2CCC[C@]2(C)O)c1=O (single isomer, unassigned) : 4.15

A. Cc1cc2cnc(NC3CCN(S(C)(=O)=O)CC3)nc2n([C@H]2COC[C@]2(C)O)c1=O (single isomer, unassigned)
B. CC(F)(F)CNS(=O)(=O)N1CCC(Nc2ncc3ccc(=O)n([C@H]4CCC[C@]4(C)O)c3n2)CC1 (single isomer, unassigned)
Task for the reader: decide whether A or B has the larger Ki. Return value: the label identifying the chosen record.
A
(A: 31 nM, B: 21.6 nM)

A. C[C@]1(O)CCC[C@@H]1n1c(=O)ccc2cnc(NC3CCN(S(=O)(=O)c4nncs4)CC3)nc21 (single isomer, unassigned)
B. Cc1cc2cnc(NC3CCN(S(C)(=O)=O)CC3)nc2n([C@H]2CC[C@H](O)C2)c1=O (single isomer, unassigned)
Kindly identify the item with the lower Ki figure among these two: A and B Indicate which entry you chose by stating its label.
B
(B: 1.34 nM, A: 6.24 nM)
